Here, each record is paired with measured pEC50 data.
Measured on: SARS-CoV-2-S1 (RBD)-His protein (Trenzyme) (SARS-CoV-2, UniProt P0DTC2 319-541)
Protocol text: iQue flow cytometry, antigen-coated beads
pEC50: −log10 of the molar value.

{"Binder": "NI-607.529_B9 (antibody, V domains shown) VH: QVQLQESGPGLVKPSETLSLTCTVSGGSISSSSYYWGWIRQPPGKGLEWIGNIYYSGSTYYNPSLKSRVTISVDTSKNQFSLKLNSVTAADTAVYFCARLLWLRGSYYWGQGTLVTVSS VL: SYELTQPHSVSESPGKTVTISCTGSSGSIASNYVQWYQQRPGSAPTTVIYEDNQRPSGVPDRFSGSIDSSSNSASLTISGLKTEDEADYYCQSYDSSNWVFGGGTKLTVL", "pEC50": 9.00}
{"Binder": "NI-607.531_D8 (antibody, V domains shown) VH: EVQLVESGGGLVQPGRSLRLSCAASGFIFDDYAMHWVRQAPGKGLEWVSGISWNSDSIGYADSVKGRFTISRDNAKNSLYLQMNSLRAEDTALYYCAKGSRSDWSNPSDYWGQGTLVTVSS VL: SYELTQPPSVSVAPGKTARITCGGNNIGSKSVHWYQQKPGQAPVLVVYDDSDRPSGIPERFSGSNSGNTATLTISRVEAGDEADYYCQVWDSSSDPVVFGGGTKLTVL", "pEC50": 8.85}
{"Binder": "NI-607.532_F3 (antibody, V domains shown) VH: EVQLVQSGAEVKKPGESLKISCKGFGYIFSNDWIGWVRQKPGKGLEWMGIIYPGDSDTRYSPSFRGQVTISADKSVSTAYLQWDSLKASDTAVYYCTRPRYTTMIVGSNPFDVWGQGTTVTVSS VL: QSVLTQPPSVSGAPGQRVTISCTGSSSNIGGGYDVHWYQKLPGTAPKLLIFDNDNRPSGVPDRFSGSKSDTSASLTITGLQAEDEADYFCQSYDSSLSGSGVVFGGGTKLTVL", "pEC50": 8.92}
{"Binder": "NI-607.274_B7 (antibody, V domains shown) VH: QVQLVESGGGRVQPGRSLRLSCAASGFTFSTHGMHWVRQVPGKGLDWITGITYDGSDQFYADSVKGRFTISRDNSKNMLYLQMNSLRAEDTAVYFCAKDLEWLTNYLDHWGQGTLVTVSS VL: DVVMTQSPGTLSVSPGERATLSCRASQNINYNLAWYQQKPGQAPRLLIFDASTRATGIPARFTGSGSGTEFTLTISSLQSEDFAVYYCQQSNAWLTFGGGTKVEIK", "pEC50": 9.17}
{"Binder": "NI-607.532_B6 (antibody, V domains shown) VH: QVQLVQSGAEVKKPGASVKVSCKASGYTFTSYDINWVRQATGQGLEWMGWMNPNSGNTGYAQKFQGRVTMTRNTSISTAYMELSSLRSEDTAVYYCARVVSLTGFFDYWGQGTLVTVSS VL: SYELTQPPSVSVAPGKTARITCGGNNIGSKNVHWYQQKPGQAPVLVVYDDSDRPSGIPERFSGSNSGNTATLTISRVEAGDEADYYCQVWDSSSDPWVFGGGTKLTVL", "pEC50": 8.96}
